All figures here come from ChEMBL document CHEMBL1201862.

Test system: P388/ADR
assayDetails: cells
Format: functional
details: Mus musculus
Counter-ions that a name gives are not always drawn. The source made the active and inactive calls.
Pick one: TRUE for active, FALSE for inactive

Recorded call for O=C(NCCCCCCNC(=O)n1cc(F)c(=O)[nH]c1=O)NCCCOCCOCCOCCOCCOCCOCCOCCOCCOCCOCCOCCOCCOCCOCCOCCOCCOCCOCCOCCOCCOCCCNC(=O)C(O)C(O)C(OC1OC(CO)C(O)C(O)C1O)C(O)CO (centres undefined) ?
TRUE

Recorded call for N=c1ccn2c(n1)O[C@H]1[C@H](O)[C@@H](CO)O[C@H]12 [ANCITABINE HYDROCHLORIDE] ?
TRUE

Recorded call for "O=S(=O)(CCBr)CCBr" ?
FALSE

Recorded call for CSc1nc(NC2OC(CO)C(O)C(O)C2O)c(N)c(=O)n1C (centres undefined) ?
FALSE

====

Give measured AC50 for each item. Keep answers brief.
studySystem: Paired box protein Pax-8 (Homo sapiens)
Sequence (Q06710 whole entry): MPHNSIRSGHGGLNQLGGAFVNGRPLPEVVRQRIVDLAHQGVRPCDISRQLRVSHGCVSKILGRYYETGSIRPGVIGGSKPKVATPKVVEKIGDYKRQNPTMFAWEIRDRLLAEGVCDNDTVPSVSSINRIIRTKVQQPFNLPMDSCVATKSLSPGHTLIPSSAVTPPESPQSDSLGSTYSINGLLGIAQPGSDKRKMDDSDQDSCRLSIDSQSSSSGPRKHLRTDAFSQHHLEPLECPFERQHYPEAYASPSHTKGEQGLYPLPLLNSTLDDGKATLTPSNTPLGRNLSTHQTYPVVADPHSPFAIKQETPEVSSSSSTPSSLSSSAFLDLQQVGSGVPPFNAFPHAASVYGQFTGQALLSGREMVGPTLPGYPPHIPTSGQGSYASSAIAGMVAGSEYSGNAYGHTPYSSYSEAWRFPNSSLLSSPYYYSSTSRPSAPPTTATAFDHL
assayDetails: PAX8 transcriptional activity inhibition in RMG-I – RMG-I cells, luciferase, cherry-pick, dose response (AID 687027);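 note: luciferase reporter driven by Pax8 target thyroperoxidase promoter measured by SteadyGlo luminescence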
Format: functional, cell-based
Active and inactive are the calls of the source.

AC50 reading for "COc1ccc(CN(C)C[C@H]2OCCCC[C@H](C)Oc3ccc(NC(=O)Nc4ccc(C(F)(F)F)cc4)cc3C(=O)N([C@@H](C)CO)C[C@@H]2C)cc1" : 8.38 µM (active)

AC50 reading for O=C(NC1CCCCC1)C(c1cccs1)N(C(=O)Cc1c[nH]c2ccccc12)c1ccc(F)cc1 (centres undefined) : 11.7 µM (active)

AC50 reading for "FC(F)(F)c1nnc2c(Sc3ccc(Cl)cc3)nc3ccccc3n12" : 1.27 µM (active)

AC50 reading for "COc1ccc(OC)c2sc(N(CCCN(C)C)C(=O)CCS(=O)(=O)c3ccccc3)nc12" : 4.77 µM (active)

====

Give measured EC50 for each item. Keep answers brief.
studySystem: Short transient receptor potential channel 4 (Mus musculus, UniProt Q9QUQ5)
Sequence (Q9QUQ5 whole entry): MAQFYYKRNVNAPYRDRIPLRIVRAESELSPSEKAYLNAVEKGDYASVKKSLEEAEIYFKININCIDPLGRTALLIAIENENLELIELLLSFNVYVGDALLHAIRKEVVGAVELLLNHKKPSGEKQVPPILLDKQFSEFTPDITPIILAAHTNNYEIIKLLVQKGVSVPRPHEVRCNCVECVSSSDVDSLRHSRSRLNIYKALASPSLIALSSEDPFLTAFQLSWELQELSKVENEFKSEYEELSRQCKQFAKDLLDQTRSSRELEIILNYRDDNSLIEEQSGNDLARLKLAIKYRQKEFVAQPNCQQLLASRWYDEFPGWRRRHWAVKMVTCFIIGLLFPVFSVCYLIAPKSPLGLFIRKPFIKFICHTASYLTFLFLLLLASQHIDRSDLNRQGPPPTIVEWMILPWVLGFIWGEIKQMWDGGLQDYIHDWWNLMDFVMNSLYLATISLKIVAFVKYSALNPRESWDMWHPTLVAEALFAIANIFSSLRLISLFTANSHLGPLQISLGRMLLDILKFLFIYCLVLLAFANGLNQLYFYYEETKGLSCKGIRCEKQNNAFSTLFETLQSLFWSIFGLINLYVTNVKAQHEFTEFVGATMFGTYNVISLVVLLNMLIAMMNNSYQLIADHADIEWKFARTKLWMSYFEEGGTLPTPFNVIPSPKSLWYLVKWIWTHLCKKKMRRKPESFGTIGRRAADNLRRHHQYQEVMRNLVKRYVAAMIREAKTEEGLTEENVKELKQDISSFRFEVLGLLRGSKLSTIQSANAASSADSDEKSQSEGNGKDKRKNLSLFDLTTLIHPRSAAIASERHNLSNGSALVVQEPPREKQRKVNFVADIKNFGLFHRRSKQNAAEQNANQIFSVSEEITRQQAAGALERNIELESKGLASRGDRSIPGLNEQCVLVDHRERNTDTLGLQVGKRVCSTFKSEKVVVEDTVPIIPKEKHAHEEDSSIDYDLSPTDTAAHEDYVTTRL
assayDetails: block of DAMGO-driven TRPC4 calcium entry – cell-based, HEK293 TRPC4/mu-opioid, Fluo-4 calcium, dose response (AID 434942);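 note: potency of inhibitors blocking the TRPC4 calcium response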
Format: functional
The source made the active and inactive calls.

EC50 reading for COc1ccc(Nc2nc(NCC3CCCO3)c3ccccc3n2)c(OC)c1 (stereo not drawn) : 0.376 µM (active)

EC50 reading for "Nc1cc(N2CCCCC2)c([N+](=O)[O-])cc1Cl" : 5.31 µM (active)

EC50 reading for "Cc1ccc(N(CC(=O)NC2CCCC2)C(=O)CNC(=O)c2cccs2)cc1F" : 5.96 µM (active)

EC50 reading for "CCOC(=O)C1(CC2CC2)CCN(Cc2c[nH]nc2-c2ccccc2)CC1" : 0.944 µM (active)

EC50 reading for Cc1cccc(CN2CCCC(C(=O)Nc3ccccc3Oc3cccnc3)C2)c1 (stereo not drawn) : 4.22 µM (active)

EC50 reading for "Cc1nn(C(=O)CNS(=O)(=O)c2ccccc2)c(C)c1Sc1ccc(Cl)cc1" : 1.33 µM (active)

EC50 reading for "CCCCCN1C2=NCCN2c2ccccc21" : 0.841 µM (active)

EC50 reading for "Cc1ccn2c(CNCCCn3cccn3)c(C(=O)N3CCCCCC3)nc2c1" : 2.11 µM (active)

====

studySystem: Nonstructural protein 1 (Influenza A virus)
Sequence (Q194T2 whole entry): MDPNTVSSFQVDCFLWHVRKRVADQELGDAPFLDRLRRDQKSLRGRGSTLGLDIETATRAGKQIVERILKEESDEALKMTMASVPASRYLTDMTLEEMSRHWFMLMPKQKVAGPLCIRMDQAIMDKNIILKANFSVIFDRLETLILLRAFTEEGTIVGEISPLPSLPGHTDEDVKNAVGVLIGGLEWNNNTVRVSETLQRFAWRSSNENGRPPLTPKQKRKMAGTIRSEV
Type: functional, Influenza A virus (A/California/07/2009(H1N1))
Active and inactive are the calls of the source.
Give measured IC50 for each item. Keep answers brief.

IC50 reading for "CC(C)(C)C1=CC(=O)C(N2CCOCC2)=CC1=O" : > 100 µM (active)

IC50 reading for "CCN=C(S)NNC(=O)c1ccccn1" : 1.55 µM (active)

IC50 reading for "CC(=NNC(=S)N1CCCCCC1)c1ccccn1" : 3 µM (active)

IC50 reading for O=C(O)CNC(=O)CC1SC(NN=C2CSC(=O)N2)=NC1=O (stereo not given) : 7.74 µM (active)

IC50 reading for "CC1(C)C(/C=C/C=C/C=C/C=C2\N(CCCCS(=O)(=O)O)c3ccc4ccccc4c3C2(C)C)=[N+](CCCCS(=O)(=O)[O-])c2ccc3ccccc3c21" : 2.7 µM (active)
